Data origin: ChEMBL document CHEMBL5523681

test: Photostability of compound in emulsified PBS buffer in presence of […] light irradiation measured upto 10 mins by absorption based assay; type: physicochemical
Measured Endpoint: Stability

> print(dat)
                            compound.string  measured.endpoint     value
1  CCN(CC)Cc1ccc(C2=C(I)C(c3ccc(OC)cc3)=[N+]3C2=Nc2c(-c4ccccc4)c4c(n2[B-]3(F)F)-c2ccc(OC)cc2CC4)cc1          Stability    Stable
2  CCN(CC)Cc1ccc(C2=C(Br)C(c3ccc(OC)cc3)=[N+]3C2=Nc2c(-c4ccc(CN(CC)CC)cc4)c(Br)c(-c4ccc(OC)cc4)n2[B-]3(F)F)cc1          Stability  Unstable
3  CCN(CC)Cc1ccc(C2=C(I)C(c3ccc(OC)cc3)=[N+]3C2=Nc2c(-c4ccc(CN(CC)CC)cc4)c(I)c(-c4ccc(OC)cc4)n2[B-]3(F)F)cc1          Stability  Unstable
4  COc1ccc(C2=[N+]3C(=Nc4c(-c5ccccc5)cc(-c5ccc(OC)cc5)n4[B-]3(F)F)C(c3ccccc3)=C2I)cc1          Stability    Stable
5  CCN(CC)Cc1ccc(C2=C(I)C(c3ccc(OC)cc3)=[N+]3C2=Nc2c(-c4ccc(CN(CC)CC)cc4)cc(-c4ccc(OC)cc4)n2[B-]3(F)F)cc1          Stability    Stable
6  CCN(CC)Cc1ccc(C2=C(I)C(c3ccc(OC)cc3)=[N+]3C2=Nc2c(-c4ccccc4)c(I)c(-c4ccc(OC)cc4)n2[B-]3(F)F)cc1          Stability  Unstable

###

assay: Dark toxicity in human HeLa cells incubated for 3 hrs by CCK-8 assay; type: cell-based
Measured Endpoint: IC50 at 3 h

> print(dat)
                            compound.string  measured.endpoint    value
1  CCN(CC)Cc1ccc(C2=C(I)C(c3ccc(OC)cc3)=[N+]3C2=Nc2c(-c4ccc(CN(CC)CC)cc4)c(I)c(-c4ccc(OC)cc4)n2[B-]3(F)F)cc1        IC50 at 3 h  26.1 µM
2  CCN(CC)Cc1ccc(C2=C(I)C(c3ccc(OC)cc3)=[N+]3C2=Nc2c(-c4ccccc4)c(I)c(-c4ccc(OC)cc4)n2[B-]3(F)F)cc1        IC50 at 3 h  > 50 µM
3  CCN(CC)Cc1ccc(C2=C(Br)C(c3ccc(OC)cc3)=[N+]3C2=Nc2c(-c4ccc(CN(CC)CC)cc4)c(Br)c(-c4ccc(OC)cc4)n2[B-]3(F)F)cc1        IC50 at 3 h    22 µM
4  CCN(CC)Cc1ccc(C2=C(I)C(c3ccc(OC)cc3)=[N+]3C2=Nc2c(-c4ccc(CN(CC)CC)cc4)cc(-c4ccc(OC)cc4)n2[B-]3(F)F)cc1        IC50 at 3 h  > 50 µM
5  COc1ccc(C2=[N+]3C(=Nc4c(-c5ccccc5)cc(-c5ccc(OC)cc5)n4[B-]3(F)F)C(c3ccccc3)=C2I)cc1        IC50 at 3 h  > 50 µM
6  CCN(CC)Cc1ccc(C2=C(I)C(c3ccc(OC)cc3)=[N+]3C2=Nc2c(-c4ccccc4)c4c(n2[B-]3(F)F)-c2ccc(OC)cc2CC4)cc1        IC50 at 3 h  > 50 µM

###

Items are presented alongside their recorded IC50 at 3 h.
assay: Dark toxicity in human HepG2 cells incubated for 3 hrs by CCK-8 assay; assay type: cell-based
Measured Endpoint: IC50 at 3 h

> print(dat)
                            compound.string    value
1  COc1ccc(C2=[N+]3C(=Nc4c(-c5ccccc5)cc(-c5ccc(OC)cc5)n4[B-]3(F)F)C(c3ccccc3)=C2I)cc1  > 50 µM
2  CCN(CC)Cc1ccc(C2=C(I)C(c3ccc(OC)cc3)=[N+]3C2=Nc2c(-c4ccc(CN(CC)CC)cc4)cc(-c4ccc(OC)cc4)n2[B-]3(F)F)cc1  > 50 µM
3  CCN(CC)Cc1ccc(C2=C(I)C(c3ccc(OC)cc3)=[N+]3C2=Nc2c(-c4ccccc4)c4c(n2[B-]3(F)F)-c2ccc(OC)cc2CC4)cc1  > 50 µM
